experiment: Tmax in Sprague-Dawley rat at 500 mg/kg, po; type: ADME, organism-based; settings: in vivo
measure: Tmax (h)
API: value field is a number in h; no unit string.

Data request: Fill blank: measured Tmax of the compound CC#C[C@@H](CC(=O)O)c1ccc(OCc2ccc3nc(-c4c(C)cccc4C)nn3c2)cc1 is ____.
Data returned: 6.7

====

assay: Tmax in Beagle dog at 100 mg/kg, po; format: ADME, organism-based, Canis lupus familiaris; settings: in vivo
measure: Tmax

Data request: Fill blank: measured Tmax of the molecule CC#C[C@@H](CC(=O)O)c1ccc(OCc2ccc3nc(-c4c(C)cccc4C)nn3c2)cc1 is ____.
Data returned: 3 h

====

Here, each record is paired with measured solubility data.
assay: Aqueous solubility of the compound at pH 7.4; format: physicochemical

Recorded solubility, per entry:
CC#C[C@@H](CC(=O)O)c1ccc(OCc2ccc(CN3CCC4(C=Cc5ccccc54)CC3)cc2)cc1 [LY2881835]: 61 to 80 µM
CC#C[C@@H](CC(=O)O)c1ccc(OCc2ccc(CN3CCCc4cccc(OC)c43)s2)cc1: > 100 µM
CC#C[C@@H](CC(=O)O)c1ccc(OCc2ccc3nc(-c4c(C)cccc4C)nn3c2)cc1: > 100 µM

Here is the next item to consider.
Data request: Fill blank: measured solubility of the molecule CC#C[C@@H](CC(=O)O)c1ccc(OCc2ccc(N3CCC4(CCc5ccccc54)CC3)s2)cc1 is ____.
Data returned: 70 to 89 µM

====

experiment: Volume of distribution at steady state in Beagle dog at 1 mg/kg, iv; assay type: ADME, organism-based, Canis lupus familiaris; conditions: in vivo, read-out: Vdss
measure: Vd (L/kg)
API: value field is a number in L/kg; no unit string.

Data request: Fill blank: measured Vd of the compound CC#C[C@@H](CC(=O)O)c1ccc(OCc2ccc3nc(-c4c(C)cccc4C)nn3c2)cc1 is ____.
Data returned: 0.27

====

experiment: Metabolic stability in rat microsomes assessed as compound metabolized after 30 mins; type: ADME, Microsome; conditions: read-out: Drug metabolism
Here, each record is paired with measured metabolised at 0.5 h data.
API: value field is a number in %; no unit string.

Recorded metabolised at 0.5 h, per entry:
CC#C[C@@H](CC(=O)O)c1ccc(OCc2ccc(CN3CCC4(C=Cc5ccccc54)CC3)cc2)cc1: 64
CC#C[C@@H](CC(=O)O)c1ccc(OCc2ccc(CN3CCCc4cccc(OC)c43)s2)cc1: 62
CC#C[C@@H](CC(=O)O)c1ccc(OCc2ccc3nc(-c4c(C)cccc4C)nn3c2)cc1: 10

Here is the next item to consider.
Data request: Fill blank: measured metabolised at 0.5 h of the compound CC#C[C@@H](CC(=O)O)c1ccc(OCc2ccc(N3CCC4(CCc5ccccc54)CC3)s2)cc1 is ____.
Data returned: 98

====

test: AUC (0 to 24 hrs) in Sprague-Dawley rat at 10 mg/kg, po; assay type: ADME, organism-based; parameters: dose 10 mg/kg, time < 24 hr, route oral; conditions: in vivo
measure: AUC(0-t) at 24 h
Provide the measurement as a number trailed by its unit.

Data request: Fill blank: measured AUC(0-t) at 24 h of the molecule CC#C[C@@H](CC(=O)O)c1ccc(OCc2ccc3nc(-c4c(C)cccc4C)nn3c2)cc1 is ____.
Data returned: 215 µg·h/mL
